The reported measurements were obtained from patent US20210236443A1.

- Tested on: MCP-1
- test.summary: MCP-1 release in LPS-stimulated RAW 264.7 cells
- Type: cell-based
- experimental.context: Mus musculus, RAW264.7, LPS 10 ng/ml, 2.5 hours, compound pre-incubation 1 hour
pIC50: −log10 of the molar value.
readout.name: pIC50

Incoming: Reported pIC50 for MCP-1, given CC1(c2ccc(-c3ccc(F)cc3COc3ccc(CCCC(=O)O)cc3)s2)CC1 ?
Outgoing: 5.97

Incoming: MCP-1 / pIC50 / CC1(c2ccc(-c3ccc(F)cc3COc3ccc(CCCC(=O)O)cc3)cc2)CC1 : value?
Outgoing: 6.54

[I] O=C(O)CCCc1ccc(OCc2cc(F)ccc2-c2ccc(C3CC3)s2)cc1
[II] O=C(O)CCCc1ccc(OCc2cc(F)ccc2-c2ncc(C3CC3)s2)cc1
Incoming: Which has the smaller recorded pIC50, I or II ? Choose, then provide that item's label.
Outgoing: I
(I: 5.69, II: 6.64)
